# TEST SYSTEM: MtYcaO (YcaO from Methanothermobacter sp. CaT2), MBP-His tag cut in the assay mixture (Methanothermobacter sp. CaT2)
# ASSAY NOTES: fluorescence polarisation
QUANTITY: EC50

Study these solved cases before continuing.
[[record]]
binder = "MtTfuA-L87A (enzyme) MHGKKIIIFTGPSLSHTEASSILEAEYRPPVRRGDIQEAMKENPDIIGIIDGVFHQSPAVGHREIIDAIRRGVKVVGGASMGAARASELSDLGMVGVGRIFRSYLEGEIESDDDVAVAFNPETLEPLSDSLVSIEFNLKRALRRGVIREDDFRKLMNTARNLFYPLRNYRRILHESGIPDDVKESLRSFLESEGRDLKREDALEVIRHIKRLAYTE"
quantity = "EC50"
result = "> 30 µM"

[[record]]
binder = "MtTfuA-R170A (enzyme) MHGKKIIIFTGPSLSHTEASSILEAEYRPPVRRGDIQEAMKENPDIIGIIDGVFHQSPAVGHREIIDAIRRGVKVVGGASMGALRASELSDLGMVGVGRIFRSYLEGEIESDDDVAVAFNPETLEPLSDSLVSIEFNLKRALRRGVIREDDFRKLMNTARNLFYPLANYRRILHESGIPDDVKESLRSFLESEGRDLKREDALEVIRHIKRLAYTE"
quantity = "EC50"
result = "> 30 µM"


Below: the item to evaluate.
Exam item: Name the recorded EC50 for MtTfuA-D54A (enzyme) MHGKKIIIFTGPSLSHTEASSILEAEYRPPVRRGDIQEAMKENPDIIGIIAGVFHQSPAVGHREIIDAIRRGVKVVGGASMGALRASELSDLGMVGVGRIFRSYLEGEIESDDDVAVAFNPETLEPLSDSLVSIEFNLKRALRRGVIREDDFRKLMNTARNLFYPLRNYRRILHESGIPDDVKESLRSFLESEGRDLKREDALEVIRHIKRLAYTE .
Marked response: > 30 µM
